Assay: Cell growth assay (WST-8) (Compounds B1-B278)
Assay type: cell-based
Conditions: 96 h; T47D cell line; WST-8, 4 days; read-out: Cell Growth Inhibition in T47D cell line IC50
pIC50: −log10 of the molar value.
Can you tell me pIC50 for the items I'm about to list?

pIC50 reading for C[C@@H]1Cc2c([nH]c3ccccc23)[C@@H](c2cnc(N3CC[C@H](CCN4CCN5c6cc7c(cc6OC[C@@H]5C4)C(=O)N(C4CCC(=O)NC4=O)C7)C3)nc2)N1CC(F)F (some centres unmarked) [Compound B122] : 8.00 to 9.00

Reported pIC50 for C[C@@H]1Cc2c([nH]c3ccccc23)[C@@H](c2cnc(N3CC4(CCC(CN5CCN6c7cc8c(cc7OC[C@@H]6C5)C(=O)N(C5CCC(=O)NC5=O)C8)CC4)C3)nc2)N1CC(F)F (some centres unmarked) [Compound B120] was 8.00 to 9.00

Record C[C@@H]1Cc2c([nH]c3ccccc23)[C@@H](c2cnc(N3CCC4(CC3)CC(CN3CCN5c6ccc7c(c6OC[C@H]5C3)CN(C3CCC(=O)NC3=O)C7=O)C4)nc2)N1CC(F)(F)CO (some centres unmarked) [Compound B153] . Reported pIC50: 8.00 to 9.00

pIC50 reading for C[C@@H]1Cc2c([nH]c3ccccc23)[C@@H](c2c(F)cc(N3CC[C@H](CN4CCN5c6ccc7c(c6OC[C@H]5C4)CN(C4CCC(=O)NC4=O)C7=O)C3)cc2F)N1CC(F)(F)CO (some centres unmarked) [Compound B150] : 8.00 to 9.00

Lab note: measured pIC50 of C[C@@H]1Cc2c([nH]c3ccccc23)[C@@H](c2cnc(N3CCC(CN4CCN5c6ccc7c(c6OC[C@@H]5C4)CN(C4CCC(=O)NC4=O)C7=O)CC3)nc2)N1CC(C)(C)F (some centres unmarked) [Compound B258] was > 9.00

* * *

Biological target: ER in MCF-7 cells (Homo sapiens (Human))
Sequence (P03372 whole entry): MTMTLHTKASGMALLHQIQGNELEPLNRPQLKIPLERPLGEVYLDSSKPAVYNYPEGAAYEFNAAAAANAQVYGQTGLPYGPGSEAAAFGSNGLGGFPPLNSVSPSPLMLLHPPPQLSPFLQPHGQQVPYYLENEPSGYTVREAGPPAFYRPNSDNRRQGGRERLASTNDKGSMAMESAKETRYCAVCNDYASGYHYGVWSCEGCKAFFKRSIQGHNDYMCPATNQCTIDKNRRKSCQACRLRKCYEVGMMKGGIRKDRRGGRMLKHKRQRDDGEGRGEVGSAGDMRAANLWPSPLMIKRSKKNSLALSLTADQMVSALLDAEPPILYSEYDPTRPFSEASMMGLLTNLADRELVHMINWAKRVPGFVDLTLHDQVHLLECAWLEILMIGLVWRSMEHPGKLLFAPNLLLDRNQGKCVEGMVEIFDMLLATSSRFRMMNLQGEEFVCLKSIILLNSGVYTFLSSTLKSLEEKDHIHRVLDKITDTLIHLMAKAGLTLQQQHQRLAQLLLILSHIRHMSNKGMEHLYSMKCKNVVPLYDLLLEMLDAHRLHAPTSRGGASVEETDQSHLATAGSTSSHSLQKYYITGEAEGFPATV
Test: In-cell western (ICW) ER degradation assay in MCF-7 cells (Compounds A1-A70)
Format: cell-based
Conditions: ER degradation, MCF-7 cells, 16 hrs treatment, 0.02 to 300 nM; read-out: MCF7 ICW DC50
Provide the reported DC50 of each item.

According to the records, this molecule COc1cc(N2CCC(CN3CCN4c5ccc6c(c5OC[C@@H]4C3)CN([C@H]3CCC(=O)NC3=O)C6=O)CC2)ccc1[C@@H]1c2[nH]c3ccccc3c2C[C@@H](C)N1CC(F)F [Compound A12] displays DC50 of < 1 nM

# DC50 (molecule: COc1cc(N2CCC(CN3CCC(c4ccc5c(c4)n(C)c(=O)n5C4CCC(=O)NC4=O)CC3)CC2)ccc1[C@@H]1c2[nH]c3ccccc3c2C[C@@H](C)N1CC(F)F (some centres unmarked) [Compound A35] ) is 10 to 100 nM

Given item COc1cc(N2CCC(CN3CCN4c5ccc6c(c5OC[C@@H]4C3)CN([C@H]3CCC(=O)NC3=O)C6=O)CC2)ccc1[C@@H]1c2[nH]c3ccccc3c2C[C@@H](C)N1CC(F)F [Compound A45] , the value recorded as its DC50 is < 1 nM

GET /value?item= COc1cc(N2CCC(CN3CCN4c5cc6c(cc5OC[C@@H]4C3)C(=O)N([C@@H]3CCC(=O)NC3=O)C6)CC2)ccc1[C@H]1c2[nH]c3ccccc3c2C[C@H](C)N1CC(F)F [Compound A44] &field=DC50 returns < 1 nM

Query C[C@H]1Cc2c([nH]c3ccccc23)[C@H](c2cnc(N3CCC4(CC3)C[C@@H](CN3CCN5c6cc7c(cc6OC[C@@H]5C3)C(=O)N([C@@H]3CCC(=O)NC3=O)C7)CO4)nc2)N1CC(F)F [Compound A68] yields DC50 of < 1 nM

What the record says about C[C@H]1Cc2c([nH]c3ccccc23)[C@H](c2cnc(N3CCC4(CC3)C[C@H](CN3CCN5c6cc7c(cc6OC[C@@H]5C3)C(=O)N([C@@H]3CCC(=O)NC3=O)C7)CO4)nc2)N1CC(F)F [Compound A69] : DC50 is < 1 nM

// DC50 lookup, molecule = C[C@@H]1Cc2c([nH]c3ccccc23)[C@@H](c2ccc(N3CCC4(CC3)CC(CN3CCN5c6ccc7c(c6OC[C@@H]5C3)CN([C@H]3CCC(=O)NC3=O)C7=O)C4)nc2)N1CC(F)F [Compound A24] , result: 10 to 100 nM

Data point: C[C@@H]1Cc2c([nH]c3ccccc23)[C@@H](c2ccc(N3CCC4(CC3)CC(CN3CCN5c6cc7c(cc6OC[C@@H]5C3)C(=O)N([C@H]3CCC(=O)NC3=O)C7)C4)nc2)N1CC(F)F [Compound A11] ; DC50 = 1 to 10 nM

* * *

Target: ER (Homo sapiens (Human), UniProt P03372)
Test: In-cell western blot analysis of relative ER percentage (Compounds B1-B278)
Type: cell-based
Details: ER degradation, 16 hours, read-out: ICW DC50
Answer each item with its documented DC50.

# DC50 of C[C@@H]1Cc2c([nH]c3ccccc23)[C@@H](c2cnc(N3CCC4(CCC(CN5CCN6c7ccc8c(c7OC[C@H]6C5)CN(C5CCC(=O)NC5=O)C8=O)CC4)CC3)nc2)N1CC(F)F (stereo partly drawn) = > 100 nM

DC50 for C[C@@H]1Cc2c([nH]c3ccccc23)[C@@H](c2cnc(N3CCC4(CC3)CC(CN3CCN5c6ccc7c(c6OC[C@H]5C3)CN(C3CCC(=O)NC3=O)C7=O)C4)nc2)N1CC1(F)CC1 (stereo partly drawn) is 10 to 100 nM

Per the records, this compound ( COc1cc(N2CCC3(CCN(C(=O)CN4Cc5cc6c(cc5C4)C(=O)N(C4CCC(=O)NC4=O)C6=O)CC3)CC2)ccc1[C@@H]1c2[nH]c3ccccc3c2C[C@@H](C)N1CC(F)F (stereo partly drawn) ) has DC50 equal to < 10 nM

The recorded DC50 for C[C@@H]1Cc2c([nH]c3ccccc23)[C@@H](c2c(F)cc(N3CCC(CN4CCN5c6ccc7c(c6OC[C@H]5C4)CN(C4CCC(=O)NC4=O)C7=O)CC3)cc2F)N1CC(F)F (mixture of isomers) is 10 to 100 nM

The measured DC50 associated with C[C@@H]1Cc2c([nH]c3ccccc23)[C@@H](c2cnc(N3CCC4(CC3)CN(C(=O)CN3CCN5c6ccc7c(c6OC[C@H]5C3)CN(C3CCC(=O)NC3=O)C7=O)C4)nc2)N1CC(F)F (stereo partly drawn) reads < 10 nM

Notebook: C[C@@H]1Cc2c([nH]c3ccccc23)[C@@H](c2c(F)cc(N3CCN(C(=O)CN4CCN5c6ccc7c(c6OC[C@H]5C4)CN(C4CCC(=O)NC4=O)C7=O)CC3)cc2F)N1CC(F)F (stereo partly drawn) , DC50 read as > 100 nM

Summary for this compound, C[C@@H]1Cc2c([nH]c3ccccc23)[C@@H](c2c(F)cc(N3CC(C(=O)N4CCN5c6ccc7c(c6OC[C@H]5C4)CN(C4CCC(=O)NC4=O)C7=O)C3)cc2F)N1CC(F)F (mixture of isomers) : DC50 is 10 to 100 nM

response.value for COc1cc(N2CCC3(CC2)OCC(CN2CCN4c5cc6c(cc5OC[C@H]4C2)C(=O)N(C2CCC(=O)NC2=O)C6)CO3)ccc1[C@@H]1c2[nH]c3ccccc3c2C[C@@H](C)N1CC(F)F (stereo partly drawn) (field: DC50) = 10 to 100 nM

DC50 for C[C@@H]1Cc2c([nH]c3ccccc23)[C@@H](c2cnc(N3CCC4(CC3)CC(N3CCN5c6ccc7c(c6OC[C@H]5C3)CN(C3CCC(=O)NC3=O)C7=O)CO4)nc2)N1CC(F)F (stereo partly drawn) is 10 to 100 nM

Briefly, DC50 measured for C[C@@H]1Cc2c([nH]c3ccccc23)[C@@H](c2cnc(N3CCC4(CC3)OCC(CN3CCN5c6ccc7c(c6OC[C@H]5C3)CN([C@H]3CCC(=O)NC3=O)C7=O)CO4)nc2)N1CC(F)(F)CO : 10 to 100 nM

Given item C[C@@H]1Cc2c([nH]c3ccccc23)[C@@H](c2c(F)cc(N3CCC(CN4CCN5c6ccc7c(c6OC[C@H]5C4)CN(C4CCC(=O)NC4=O)C7=O)CC3)cc2F)N1CC(F)(F)CO (stereo partly drawn) , the value recorded as its DC50 is > 100 nM

Lab note: C[C@@H]1Cc2c([nH]c3ccccc23)[C@@H](c2cnc(N3CC4(CCC(CN5CCN6c7ccc8c(c7OC[C@H]6C5)CN(C5CCC(=O)NC5=O)C8=O)CC4)C3)nc2)N1CC1(F)CC1 (stereo partly drawn) gave DC50 of 10 to 100 nM

Lab note: measured DC50 of COc1cc(N2CCC3(CC2)CC(CN2CCN4c5ccc6c(c5OC[C@H]4C2)CN(C2CCC(=O)NC2=O)C6=O)CO3)ccc1[C@@H]1c2[nH]c3ccccc3c2C[C@@H](C)N1CC(C)(C)F (stereo partly drawn) was 10 to 100 nM

COc1cc(N2CC3(CCC(CN4CCC5(CC4)COc4c5ccc5c4CN(C4CCC(=O)NC4=O)C5=O)CC3)C2)ccc1[C@@H]1c2[nH]c3ccccc3c2C[C@@H](C)N1CC(F)F (stereo partly drawn) yielded DC50 of 10 to 100 nM

Consider C[C@@H]1Cc2c([nH]c3ccccc23)[C@@H](c2ccc(N3CCC4(CC3)CC(CN3CCN5c6ccc7c(c6OC[C@H]5C3)CN([C@H]3CCC(=O)NC3=O)C7=O)CO4)cn2)N1CC(F)(F)F (stereo partly drawn) . Its measured DC50 is 10 to 100 nM

DC50 in this record for C[C@@H]1Cc2c([nH]c3ccccc23)[C@@H](c2c(F)cc(N3CCN(CC(=O)N4CCN5c6ccc7c(c6OC[C@H]5C4)CN(C4CCC(=O)NC4=O)C7=O)CC3)cc2F)N1CC(F)F (stereo partly drawn) : > 100 nM

Entry C[C@@H]1CC2c3ccccc3NC2[C@@H](c2c(F)cc(N3CCC4(CC3)CC(CN3CCN5c6cc7c(cc6OC[C@H]5C3)C(=O)N(C3CCC(=O)NC3=O)C7)CO4)cc2F)N1CC(F)(F)CO (stereo partly drawn) — recorded DC50 = > 100 nM

For this compound ( COc1cc(N2CCC3(CCN(C(=O)CN4Cc5cc6c(cc5C4)C(=O)N(C4CCC(=O)NC4=O)C6=O)CC3)CC2)ccc1[C@@H]1c2[nH]c3ccccc3c2C[C@@H](C)N1CC(C)(C)F (stereo partly drawn) ), measured DC50 is > 100 nM
